target: E. coli PanK (CoAA) (Escherichia coli); test: Kinetic assay of pantetheine analogs as substrates of PanK; type: biochemical; conditions: compound as substrate of E. coli PanK
Sequence (P0A6I3 whole entry): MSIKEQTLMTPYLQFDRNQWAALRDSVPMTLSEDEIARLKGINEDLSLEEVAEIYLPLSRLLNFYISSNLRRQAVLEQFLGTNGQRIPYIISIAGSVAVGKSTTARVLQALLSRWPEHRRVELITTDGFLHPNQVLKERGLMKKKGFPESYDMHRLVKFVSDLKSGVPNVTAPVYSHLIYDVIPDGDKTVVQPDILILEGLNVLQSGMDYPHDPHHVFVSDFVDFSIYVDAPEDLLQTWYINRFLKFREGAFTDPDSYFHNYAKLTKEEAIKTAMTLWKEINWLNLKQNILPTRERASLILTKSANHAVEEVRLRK
VALUE_KIND: Km (µM)
The response must be a number in µM with no trailing unit.

In the examples that follow, each entry is paired with its recorded Km.
query: Reported Km, molecule C#CCNC(=O)CCNC(=O)[C@H](O)C(C)(C)CO [Compound 2] : ____
result: 32.9

query: Would you kindly share the measured Km for CN(C)c1cccc2c(S(=O)(=O)NCCNC(=O)CCNC(=O)[C@H](O)C(C)(C)CO)cccc12 [Compound 14] ?
result: 27.3

query: Given the molecule CC(C)(CO)[C@@H](O)C(=O)NCCOCCOCCNC(=O)CCN=[N+]=[N-] [Compound 7] , what is its reported Km?
result: 53.8

New cases:
query: Endpoint output: Km of CC(C)(CO)[C@@H](O)C(=O)NCCN=[N+]=[N-] [Compound 1] . Value?
result: 692

query: Sample CC(=O)CCC(=O)NCCOCCOCCNC(=O)[C@H](O)C(C)(C)CO [Compound 6] — what was its Km?
result: 0.196
